- system: full-length RORγt (Homo sapiens (Human))
- protocol-details: RORγt 5×RORE Assay in Jurkat Cells (Assay 2)
- assay-setup: secreted Nanoluc luciferase 5×RORE reporter, 16-18 hrs, read-out: RORγt5X IC50 Range
pIC50: −log10 of the molar value.
The reader will find reported pIC50 values listed item by item below.

CCS(=O)(=O)c1ccc(CNC(=O)c2cnc3c(c2)CN(C[C@H]2CC[C@H](OC)CC2)[C@H]3C(C)C)cc1 [Compound 45]    > 7.00
CCS(=O)(=O)N1CCC(CNC(=O)c2cnc3c(c2)CN(Cc2ccc(C(F)(F)F)cc2)[C@H]3C(C)C)CC1 [Compound 109]    < 6.00
CC(C)[C@H]1c2ncc(C(=O)NCc3ccc(S(C)(=O)=O)cc3)cc2CN1Cc1ccc(F)cc1 [Compound 24]    < 6.00

Name the recorded pIC50 for CC(C)[C@H]1c2ncc(C(=O)NCc3ccc(S(C)(=O)=O)cc3)cc2CN1Cc1ccc(C#N)cc1 [Compound 21] .
6.00 to 7.00

====

- system: recombinant RORγ Ligand Binding Domain (LBD) (Homo sapiens (Human))
- protocol-details: Radio-Ligand RORγ Binding Assay (Assay 1)
- assay-setup: SPA competition with 25-hydroxy [26,27-3H]-cholesterol, cell-free; read-out: RORγ Binding Ki Range
- Description: Radio-Ligand RORγ Binding Assay (Assay 1) Compounds of the present invention were tested for ability to bind to RORγ in a cell-free competition assay with commercially available radio-ligand (RL), 25-hydroxy [26,27-^3H]-cholesterol (PerkinElmer, Cat. #NET674250UC), for a ligand binding site on a recombinant RORγ Ligand Binding Domain (LBD) protein expressed as a 6×His-Glutathione-S-Transferase (GST) fusion. […] SPA signal for tritium beta radiation was registered on PerkinElmer Microbeta plate reader. […]
Ki values for the molecules below.

CC(C)[C@H]1c2ncc(C(=O)NCC3CN(S(C)(=O)=O)C3)cc2CN1Cc1ccc(C(F)(F)F)cc1    > 1000 nM
CCS(=O)(=O)c1ccc(CC(=O)Nc2cnc3c(c2)CN(Cc2ccc(C(F)(F)F)cc2)[C@H]3C(C)C)cc1    < 100 nM
COC(=O)C1(CNC(=O)c2cnc3c(c2)CN(Cc2ccc(C(F)(F)F)cc2)[C@H]3C(C)C)CCOCC1    > 1000 nM

Please find the next molecule below.
Need Ki of CC(C)[C@H]1c2ncc(C(=O)NCc3ccc(S(C)(=O)=O)cc3)cc2CN1Cc1ccc(Cl)cn1 , thanks.
100 to 1000 nM

====

- system: full-length RORγt (Homo sapiens (Human), UniProt P51449)
- Sequence (P51449 other isoform, or with tags, fused parts or gaps): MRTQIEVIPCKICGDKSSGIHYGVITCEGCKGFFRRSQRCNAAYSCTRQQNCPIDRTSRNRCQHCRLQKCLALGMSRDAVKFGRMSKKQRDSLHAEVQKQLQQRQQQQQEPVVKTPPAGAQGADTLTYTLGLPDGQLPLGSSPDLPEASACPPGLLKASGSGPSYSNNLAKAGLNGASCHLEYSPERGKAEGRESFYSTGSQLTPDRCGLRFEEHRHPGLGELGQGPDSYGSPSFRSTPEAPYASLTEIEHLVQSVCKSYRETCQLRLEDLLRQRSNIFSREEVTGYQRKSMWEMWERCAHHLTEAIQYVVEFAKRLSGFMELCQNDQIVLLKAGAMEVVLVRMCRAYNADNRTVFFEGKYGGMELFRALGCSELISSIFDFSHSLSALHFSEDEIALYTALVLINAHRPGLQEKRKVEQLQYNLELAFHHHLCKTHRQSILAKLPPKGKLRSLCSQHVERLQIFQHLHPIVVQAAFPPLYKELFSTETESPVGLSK
- protocol-details: RORγt 5×RORE Assay in Jurkat Cells (Assay 2)
- Assay type: cell-based
- assay-setup: secreted Nanoluc luciferase 5×RORE reporter, 16-18 hrs, read-out: RORγt5X IC50 Range
pIC50: −log10 of the molar value.
Reported pIC50 values for a set of compounds

// pIC50 lookup, key: CCS(=O)(=O)c1ccc(CNC(=O)c2cnc3c(c2)[C@H](C)N(Cc2ccc(C(F)(F)F)cc2)[C@H]3C(C)C)cc1
> 7.00

Fill in: pIC50 of CNS(=O)(=O)c1ccc(CNC(=O)c2cnc3c(c2)CN(Cc2ccc(C(F)(F)F)cc2)[C@H]3C(C)C)cc1 is ___
> 7.00

Please look up its pIC50: CC(C)[C@H]1c2ncc(C(=O)NCC3CCN(S(C)(=O)=O)CC3)cc2CN1Cc1ccc(C(F)(F)F)cc1
6.00 to 7.00

What measured pIC50 goes with CCS(=O)(=O)c1ccc(CNC(=O)c2cnc3c(c2)CN(CC2CCC(F)(F)CC2)[C@H]3C(C)C)nc1 ?
< 6.00

Item under review: CCS(=O)(=O)c1ccc(CNC(=O)c2cnc3c(c2)CN(c2ncc(C(F)(F)F)cn2)[C@H]3C(C)C)cc1 . Reported pIC50?
< 6.00

Data request, read-out pIC50, for CCS(=O)(=O)c1ccc(CNC(=O)c2cnc3c(c2)CN(Cc2ccc(C#N)cc2)[C@H]3C(C)C)nc1
6.00 to 7.00

Recorded pIC50 for CCS(=O)(=O)c1cnc(CNC(=O)c2cnc3c(c2)CN(Cc2ccc(C(F)(F)F)cc2)[C@H]3C(C)C)c(F)c1 , please?
> 7.00
